Test system: SK-OV-3 ovarian
Assay: NCI-60 one-dose screen, 48 h
Details: 10 µM unless noted
About 83,000 compounds went through this panel and 20% of them were active in at least one assay; those are over-represented in the sample as a whole. Calls of active or inactive are those of the source. The calls were made as follows: active = growth percent below 10; inactive = the rest.
Hi! Could you answer with just one of these? Y = active, N = inactive

Worked examples follow.
Req: Look up the recorded call for `Cn1ccc(=O)nc1` in this test.
Resp: N

Req: Look up the recorded call for `C#COc1cccc(Nc2ncnc3cc(NC(=O)[C@@H](C)Cl)ccc23)c1` in this test.
Resp: Y

Req: Look up the recorded call for `C[C@]1(O)CC(=O)[C@]2(O)C3=C(C=C[C@]2(O)C1)C(=O)c1c(O)cccc1C3=O` in this test.
Resp: N

Req: Look up the recorded call for `CS(=O)(=O)c1ccc(NC(=O)c2ccccc2)nc1` in this test.
Resp: N

Req: Look up the recorded call for `COc1cc2nc3sc(C(=O)Nc4ccc(C(=O)OC(C)C)cc4)c(C(=O)Nc4ccc(Cl)cc4C)n3c(=O)c2cc1OC` in this test.
Resp: N

Now let's try a different one.
Req: Look up the recorded call for O=C(/C=C/C12c3ccccc3C(c3ccccc31)C1C(=O)NC(=O)C12)c1ccc(Br)cc1 (stereo unspecified) in this test.
Resp: N
